Recorded values, source patent US11396504B2.

Target desc: Sphingomyelin Synthase 2 (SMS2 pure enzyme) (Homo sapiens, UniProt Q8NHU3)
Construct: Yu, Cao research group of National Protein Science Center (Shanghai)
Sequence (Q8NHU3 1-365): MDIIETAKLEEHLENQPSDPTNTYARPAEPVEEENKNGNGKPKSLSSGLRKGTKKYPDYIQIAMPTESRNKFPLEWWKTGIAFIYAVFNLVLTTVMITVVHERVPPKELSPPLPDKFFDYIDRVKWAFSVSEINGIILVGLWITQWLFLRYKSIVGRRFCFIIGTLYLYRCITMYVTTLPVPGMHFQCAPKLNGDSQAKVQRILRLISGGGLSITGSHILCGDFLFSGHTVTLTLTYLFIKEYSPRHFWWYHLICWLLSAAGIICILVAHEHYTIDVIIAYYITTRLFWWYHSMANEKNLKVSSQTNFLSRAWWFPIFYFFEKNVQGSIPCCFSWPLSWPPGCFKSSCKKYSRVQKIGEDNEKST
Assay info: In vitro SMS2 pure enzyme inhibition, HPLC fluorogenic quantitative detecting method (C6-NBD-Ceramide to C6-NBD-SM)
Type: biochemical
Test context: SMS1 IC50 relative to SMS2 IC50
Property label: Selectivity ratio

Below are worked cases with known answers.
CCc1ccccc1COc1cccc2onc(Nc3cccnc3)c12 [Scheme I-1] = 342
Cc1ccccc1COc1cccc2onc(Nc3cccnc3)c12 [Scheme I-10] = 140
Cc1cccc(C)c1COc1cccc2onc(Nc3cccnc3)c12 [Scheme I-25] = 307

P: COc1ccccc1COc1cccc2onc(Nc3cccnc3)c12 [Scheme I-16]
Q: Fc1ccc(Cl)c(COc2cccc3onc(Nc4cccnc4)c23)c1 [Scheme I-2]
R: Clc1ccccc1COc1cccc2onc(Nc3cccnc3)c12 [Scheme I-7]
S: Clc1cccc(Cl)c1COc1cccc2onc(Nc3cccnc3)c12 [Scheme I-26]
Parameters: sort_field (Selectivity ratio), sort_dir (desc). I'd appreciate it if you listed the labels in the requested order. S, Q, R, P
